- system_under_test: T1, biotinylated goat anti-human kappa light chain
- T1 construct: positive control of the ELISA
- assay_notes: ELISA, positive control; note: test concentration or dose not given here
Below: a set of entries, each annotated with reported optical density.
Value expressed in OD; do not type the unit.

// below: answered binders
375_C03 (antibody, V domains shown, Group II) VH: EVQLLESGGGLVQPGGSLRLSCAASGFTFDSYSMHWVRQAPGKGLEWVSGINYNGGYTSYADSVKGRFTISRDNSKNTLYLQMNSLRAEDTAVYYCARAATWHDTHLDYWGQGTLVTVSS VL: DIQMTQSPSSLSASVGDRVTITCRASQSILSYVNWYQQKPGKAPKLVIYAATSRASGVPSRFSGSGSGTDFTLTISSLQPEDFATYYCQQSYESPLTFGGGTKVEIK    3.16
376_F09 (antibody, V domains shown, Group II) VH: EVQLLESGGGLVQPGGSLRLSCAASGFTFDSYSMHWVRQAPGKGLEWVSSINYNGGYKSYADSVKGRFTISRDNSKNTLYLQMNSLRAEDTAVYYCARAATWHDTHLDYWGQGTLVTVSS VL: DIQMTQSPSSLSASVGDRVTITCRASQSILTYVNWYQQKPGKAPKLLIYAVTSRASGVPSRFSGSGSGTDFTLTISSLQPEDFATYYCQQSYDTPLTFGGGTKVEIK    3.35

Name the reported optical density value associated with the binder 368_A12 (antibody, V domains shown, Group I) VH: EVQLLESGGGLVQPGGSLRLSCAASGFTFDSYSMHWVRQAPGKGLEWVSSINYNSGYKGYADSVKGRFTISRDNSKNTLYLQMNSLRAEDTAVYYCARAANWHDTALDYWGQGTLVTVSS VL: DIQMTQSPSSLSASVGDRVTITCRASQSILTYLNWYQQKPGKAPKLVIYAATSRASGVPSRFSGSGSGTDFTLTISSLQPEDFATYYCQQSYDSPLTFGGGTKVEIK 3.69

Then this binder: 367_C06 (antibody, V domains shown, Group II) VH: EVQLLESGGGLVQPGGSLRLSCAASGFTFDSYSMHWVRQAPGKGLEWVASINYNGGYKSYADSVKGRFTISRDNSKNTLYLQMNSLRAEDTAVYYCARAATWHDTHLDYWGQGTLVTVSS VL: DIQMTQSPSSLSASVGDRVTITCRASQSILTYLNWYQQKPGKAPKLVIYAATSLHSGVPSRFSGSGSGTDFTLTISSLQPEDFATYYCQQSYDTPLTFGGGTKVEIK 3.5

Proceed to 366_E07 (antibody, V domains shown, Group II) VH: EVQLLESGGGLVQPGGSLRLSCAASGFTFDSYGMHWVRQAPGKGLEWVAGINYNGGYTSYADSVKGRFTISRDNSKNTLYLQMNSLRAEDTAVYYCARAATWHDTALDYWGQGTLVTVSS VL: DIQMTQSPSSLSASVGDRVTITCRASQSILTYLNWYQQKPGKAPKLVIYAATSRHSGVPSRFSGSGSGTDFTLTISSLQPEDFATYYCQQSDNSPLTFGGGTKVEIK 3.14
